Target Under Test: Neu5Ac(a2-3)Gal(b1-3)GlcNAc(b1-3)Gal(b1-3)GlcNAc
Assay Info: glycan array binding signal (z-score within array); higher = stronger binding
Test Parameters: glycan notation: IUPAC condensed, linker removed
Shown is part of a subset that was picked to be rich in the strongest signals.
Metric Name: glycan array binding signal (z-score)

Recorded result, HML-Native (Hypnea musciformis), P84871 (protein) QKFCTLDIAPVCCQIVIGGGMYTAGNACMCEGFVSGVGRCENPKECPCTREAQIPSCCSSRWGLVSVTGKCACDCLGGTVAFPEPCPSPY , glycan array binding signal (z-score): -0.295
